Test system: 349418-098-R-PDC complex spheroid viability
Test: Anticancer human tumor 349418-098-R-PDC patient-derived lung adenocarcinoma cell line growth inhibition [RAS]
Conditions: second compound 0.03 µM; first compound 0.3 µM; stronger effect = lower value
Readout Type: viability, T/C (%)
Answers are plain numbers, in %.

Sample answers from the record:
1) CC1(C)CCC(Nc2ncc(C(F)(F)F)c(-c3c[nH]c4c(P(C)(C)=O)c(C#N)ccc34)n2)CN1 (centres undefined) + CCn1c(-c2cc(N3CCN(C)CC3)cnc2C(C)OC)c2c3cc(ccc31)-c1csc(n1)CC(NC(=O)C1CC1C)C(=O)N1CCCC(N1)C(=O)OCC(C)(C)C2 ... 8.17
2) CCc1c2c(nc3ccc(O)cc13)-c1cc3c(c(=O)n1C2)COC(=O)[C@]3(O)CC + CCn1c(-c2cc(N3CCN(C)CC3)cnc2C(C)OC)c2c3cc(ccc31)-c1csc(n1)CC(NC(=O)C1CC1C)C(=O)N1CCCC(N1)C(=O)OCC(C)(C)C2 ... 2.61
3) CC1(C)CCC(Nc2ncc(C(F)(F)F)c(-c3c[nH]c4c(P(C)(C)=O)c(C#N)ccc34)n2)CN1 (centres undefined) + CCn1c(-c2cccnc2C(C)OC)c2c3cc(ccc31)N1CCOC(CC(NC(=O)C(C(C)C)N(C)C(=O)C3(F)CCN(C(=O)C#CC(C)(C)N(C)C)CC3)C(=O)N3CCCC(N3)C(=O)OCC(C)(C)C2)C1 ... 7.47

Moving on to another compound below.
# value lookup — system 349418-098-R-PDC complex spheroid viability, readout viability, T/C, item CCc1c2c(nc3ccc(O)cc13)-c1cc3c(c(=O)n1C2)COC(=O)[C@]3(O)CC + CCn1c(-c2cccnc2C(C)OC)c2c3cc(ccc31)N1CCOC(CC(NC(=O)C(C(C)C)N(C)C(=O)C3(F)CCN(C(=O)C#CC(C)(C)N(C)C)CC3)C(=O)N3CCCC(N3)C(=O)OCC(C)(C)C2)C1 2.19

---

Tested on: 349418-098-R-PDC complex spheroid viability
Test: Anticancer human tumor 349418-098-R-PDC cell line growth inhibition [RAS];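 note: spheroids exposed to compound for seven days before viability readout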
Details: second compound 0.00316 µM; first compound 10 µM; stronger effect = lower value
Readout Type: viability, T/C (%)
Give bare numbers, in %.

Okay, here is my list. What is viability, T/C for each of these?
1. CC(=O)OC12COC1CC(O)C1(C)C(=O)C(O)C3=C(C)C(OC(=O)C(O)C(NC(=O)OC(C)(C)C)c4ccccc4)CC(O)(C(OC(=O)c4ccccc4)C21)C3(C)C (stereo not drawn) + C=CC(=O)N1CCN(c2nc(OCC3CCCN3C)nc3c(F)c(-c4nc(N)cc(C)c4C(F)(F)F)c(Cl)cc23)C(C)C1
2. C[C@@H](NC(=O)c1ncnc(N)c1Cl)c1ncc(C(=O)Nc2cc(C(F)(F)F)c(Cl)cn2)s1 + C=CC(=O)N1CCN(c2nc(OCC3CCCN3C)nc3c(F)c(-c4nc(N)cc(C)c4C(F)(F)F)c(Cl)cc23)C(C)C1
3. CC(C)NCC(C(=O)N1CCN(c2ncnc3c2C(C)CC3O)CC1)c1ccc(Cl)cc1 (stereo not drawn) + C=CC(=O)N1CCN(c2nc(OCC3CCCN3C)nc3c(F)c(-c4nc(N)cc(C)c4C(F)(F)F)c(Cl)cc23)C(C)C1
4. Cc1nc(N2CCC3(CC2)COC(C)C3N)c(CO)nc1Sc1ccnc(N)c1Cl (stereo not drawn) + C=CC(=O)N1CCN(c2nc(OCC3CCCN3C)nc3c(F)c(-c4nc(N)cc(C)c4C(F)(F)F)c(Cl)cc23)C(C)C1
5. NC1c2ccccc2OC12CCN(c1cnc3c(N4CCCc5ncccc54)n[nH]c3n1)CC2 (stereo not drawn) + C=CC(=O)N1CCN(c2nc(OCC3CCCN3C)nc3c(F)c(-c4nc(N)cc(C)c4C(F)(F)F)c(Cl)cc23)C(C)C1
6. CC1(O)CCCC1n1c(=O)c(C(F)F)cc2cnc(NC3CCN(S(C)(=O)=O)CC3)nc21 (stereo not drawn) + C=CC(=O)N1CCN(c2nc(OCC3CCCN3C)nc3c(F)c(-c4nc(N)cc(C)c4C(F)(F)F)c(Cl)cc23)C(C)C1

23.6
32.6
7.89
102
55.8
4.51

Batch: viability, T/C for all items listed.
1. CC(Nc1ccc2c(c1)OCCn1cc(N3C(=O)OCC3C(F)F)nc1-2)C(N)=O (stereo not drawn) + C=CC(=O)N1CCN(c2nc(OCC3CCCN3C)nc3c(F)c(-c4nc(N)cc(C)c4C(F)(F)F)c(Cl)cc23)C(C)C1
2. CCC(CC)c1cc(NC2CCC(N)C2)n2nccc2n1 (stereo not drawn) + C=CC(=O)N1CCN(c2nc(OCC3CCCN3C)nc3c(F)c(-c4nc(N)cc(C)c4C(F)(F)F)c(Cl)cc23)C(C)C1

1: 9.03; 2: 2.99

---

So I've got a bunch of compounds here, and I need their viability, T/C values.
System: 349418-098-R-PDC complex spheroid viability
Experiment: Anticancer human tumor 349418-098-R-PDC cell line growth inhibition [RAS];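 note: spheroids exposed to compound for seven days before viability readout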
Conditions: second compound 0.3 µM; first compound 0.0949 µM; stronger effect = lower value
Give bare numbers, in %.

1. CC1(C)CCC(Nc2ncc(C(F)(F)F)c(-c3c[nH]c4c(P(C)(C)=O)c(C#N)ccc34)n2)CN1 (centres undefined) + CCn1c(-c2cccnc2C(C)OC)c2c3cc(ccc31)N1CCOC(CC(NC(=O)C(C(C)C)N(C)C(=O)C3(F)CCN(C(=O)C#CC(C)(C)N(C)C)CC3)C(=O)N3CCCC(N3)C(=O)OCC(C)(C)C2)C1 ... 8.24
2. CCc1c2c(nc3ccc(O)cc13)-c1cc3c(c(=O)n1C2)COC(=O)[C@]3(O)CC + CCn1c(-c2cc(N3CCN(C)CC3)cnc2C(C)OC)c2c3cc(ccc31)-c1csc(n1)CC(NC(=O)C1CC1C)C(=O)N1CCCC(N1)C(=O)OCC(C)(C)C2 ... 3.82
3. CCc1c2c(nc3ccc(O)cc13)-c1cc3c(c(=O)n1C2)COC(=O)[C@]3(O)CC + CCn1c(-c2cccnc2C(C)OC)c2c3cc(ccc31)N1CCOC(CC(NC(=O)C(C(C)C)N(C)C(=O)C3(F)CCN(C(=O)C#CC(C)(C)N(C)C)CC3)C(=O)N3CCCC(N3)C(=O)OCC(C)(C)C2)C1 ... 2.68

// next entry
I'm curious: which viability, T/C was measured for CC1(C)CCC(Nc2ncc(C(F)(F)F)c(-c3c[nH]c4c(P(C)(C)=O)c(C#N)ccc34)n2)CN1 (centres undefined) + CCn1c(-c2cc(N3CCN(C)CC3)cnc2C(C)OC)c2c3cc(ccc31)-c1csc(n1)CC(NC(=O)C1CC1C)C(=O)N1CCCC(N1)C(=O)OCC(C)(C)C2 tested on 349418-098-R-PDC complex spheroid viability? 9.58

---

Test system: 349418-098-R-PDC complex spheroid viability
Experiment: Anticancer human tumor 349418-098-R-PDC cell line growth inhibition [RAS]; active means viability on the fitted dose curve at most 10% of control; inactive means the rest;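 note: spheroids exposed to compound for seven days before viability readout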
Conditions: second compound 0.03 µM; first compound 0.1 µM
A correct response names exactly one class from True = active, False = inactive

Consider the worked cases shown below.
1) Nc1ccn(C2OC(CO)C(O)C2(F)F)c(=O)n1 (stereo not given) + CCn1c(-c2cc(N3CCN(C)CC3)cnc2C(C)OC)c2c3cc(ccc31)-c1csc(n1)CC(NC(=O)C1CC1C)C(=O)N1CCCC(N1)C(=O)OCC(C)(C)C2 ... True
2) O=C(c1ccc(F)c(F)c1Nc1ccc(I)cc1F)N1CC(O)([C@@H]2CCCCN2)C1 + CCn1c(-c2cc(N3CCN(C)CC3)cnc2C(C)OC)c2c3cc(ccc31)-c1csc(n1)CC(NC(=O)C1CC1C)C(=O)N1CCCC(N1)C(=O)OCC(C)(C)C2 ... True
3) CC1(O)CCCC1n1c(=O)c(C(F)F)cc2cnc(NC3CCN(S(C)(=O)=O)CC3)nc21 (stereo not given) + CCn1c(-c2cc(N3CCN(C)CC3)cnc2C(C)OC)c2c3cc(ccc31)-c1csc(n1)CC(NC(=O)C1CC1C)C(=O)N1CCCC(N1)C(=O)OCC(C)(C)C2 ... False
4) C[C@@H](NC(=O)c1ncnc(N)c1Cl)c1ncc(C(=O)Nc2cc(C(F)(F)F)c(Cl)cn2)s1 + CCn1c(-c2cccnc2C(C)OC)c2c3cc(ccc31)N1CCOC(CC(NC(=O)C(C(C)C)N(C)C(=O)C3(F)CCN(C(=O)C#CC(C)(C)N(C)C)CC3)C(=O)N3CCCC(N3)C(=O)OCC(C)(C)C2)C1 ... False
5) CC(C)NCC(C(=O)N1CCN(c2ncnc3c2C(C)CC3O)CC1)c1ccc(Cl)cc1 (stereo not given) + CCn1c(-c2cccnc2C(C)OC)c2c3cc(ccc31)N1CCOC(CC(NC(=O)C(C(C)C)N(C)C(=O)C3(F)CCN(C(=O)C#CC(C)(C)N(C)C)CC3)C(=O)N3CCCC(N3)C(=O)OCC(C)(C)C2)C1 ... False
6) CC(C)n1nc(-c2ccc3oc(N)nc3c2)c2c(N)ncnc21 + CCn1c(-c2cc(N3CCN(C)CC3)cnc2C(C)OC)c2c3cc(ccc31)-c1csc(n1)CC(NC(=O)C1CC1C)C(=O)N1CCCC(N1)C(=O)OCC(C)(C)C2 ... True

State the result this test recorded for CC1(O)CCCC1n1c(=O)c(C(F)F)cc2cnc(NC3CCN(S(C)(=O)=O)CC3)nc21 (stereo not given) + CCn1c(-c2cccnc2C(C)OC)c2c3cc(ccc31)N1CCOC(CC(NC(=O)C(C(C)C)N(C)C(=O)C3(F)CCN(C(=O)C#CC(C)(C)N(C)C)CC3)C(=O)N3CCCC(N3)C(=O)OCC(C)(C)C2)C1 . False

Per the assay record, what outcome was assigned to C=CC(=O)N1CCN(c2nc(OCC3CCCN3C)nc3c(F)c(-c4nc(N)cc(C)c4C(F)(F)F)c(Cl)cc23)C(C)C1 (stereo not given) + CCn1c(-c2cccnc2C(C)OC)c2c3cc(ccc31)N1CCOC(CC(NC(=O)C(C(C)C)N(C)C(=O)C3(F)CCN(C(=O)C#CC(C)(C)N(C)C)CC3)C(=O)N3CCCC(N3)C(=O)OCC(C)(C)C2)C1 ? False

How was C=CC(=O)N1CCN(c2nc(OCC3CCCN3C)nc3c(F)c(-c4nc(N)cc(C)c4C(F)(F)F)c(Cl)cc23)C(C)C1 (stereo not given) + CCn1c(-c2cc(N3CCN(C)CC3)cnc2C(C)OC)c2c3cc(ccc31)-c1csc(n1)CC(NC(=O)C1CC1C)C(=O)N1CCCC(N1)C(=O)OCC(C)(C)C2 classified in this test? False
